// values below are reported half-life
Species: Homo sapiens
assay: Half life in human plasma
Hi! Could you send only the number? It should be in h, unit omitted.

Example entries begin here.
{"compound": "CCCO[C@H]1OC(=O)C[C@@H]1NC(=O)[C@@H](CC(=O)NCCc1cccc2ncccc12)C(C)C", "unitOfMeasure": "h", "half-life": 10}
{"compound": "CCC(C)O[C@H]1OC(=O)C[C@@H]1NC(=O)[C@@H](CC(=O)NCCc1cccc2ncccc12)C(C)C (some centres undefined)", "unitOfMeasure": "h", "half-life": 7.7}
{"compound": "CC(C)[C@H](CC(=O)NCCc1cccc2ncccc12)C(=O)N[C@H]1CC(=O)O[C@@H]1OC1CCCC1", "unitOfMeasure": "h", "half-life": 5.1}

Let us move to another entry and its half-life.
Ask: Quick one: half-life of CCC(C)O[C@@H]1OC(=O)C[C@@H]1NC(=O)[C@@H](CC(=O)NCCc1cccc2ncccc12)C(C)C (some centres undefined) ?
Reply: 3.9

====

// values below are reported half-life
Organism: Homo sapiens
assay: Half life in human plasma
Hi! Could you send only the number? It should be in min, unit omitted.

{"molecularString": "CCO[C@@H]1OC(=O)C[C@@H]1NC(=O)[C@@H](CC(=O)NCCc1cccc2ncccc12)C(C)C", "unitOfMeasure": "min", "half-life": 52.2}
{"molecularString": "CCO[C@H]1OC(=O)C[C@@H]1NC(=O)[C@@H](CC(=O)NCCc1cccc2ncccc12)C(C)C", "unitOfMeasure": "min", "half-life": 258}
{"molecularString": "CCCO[C@@H]1OC(=O)C[C@@H]1NC(=O)[C@@H](CC(=O)NCCc1cccc2ncccc12)C(C)C", "unitOfMeasure": "min", "half-life": 120}

Let us move to another entry and its half-life.
Ask: Quick one: half-life of CC(C)[C@H](CC(=O)NCCc1cccc2ncccc12)C(=O)N[C@H]1CC(=O)O[C@H]1OC1CCCC1 ?
Reply: 942

====

assay: Selectivity ratio of human ICE to caspase 6
observedProperty: Selectivity ratio

Example entries begin here.
{"compound": "CC(=O)N[C@@H](Cc1ccc(O)cc1)C(=O)N[C@H](C(=O)N[C@@H](C)C(=O)N[C@H](C=O)CC(=O)O)C(C)C", "observedProperty": "Selectivity ratio", "reportedValue": "> 200"}
{"compound": "CC(C)[C@H](CC(=O)N(CCOc1ccccc1)C(C)C)C(=O)N[C@H](C=O)CC(=O)O", "observedProperty": "Selectivity ratio", "reportedValue": "> 200"}
{"compound": "CCO[C@@H]1OC(=O)C[C@@H]1NC(=O)[C@@H](CC(=O)NCCc1cccc2ncccc12)C(C)C", "observedProperty": "Selectivity ratio", "reportedValue": "> 200"}

Ask: Quick one: Selectivity ratio of CCO[C@@H]1OC(=O)CC1NC(=O)[C@@H]1CCCN2C(=O)CC[C@H](NC(=O)c3nccc4ccccc34)C(=O)N12 (stereo partly specified) ?
Reply: > 200

Ask: Let us now turn to CC(C)[C@H](CC(=O)NCCC(=O)c1ccccc1)C(=O)N[C@H](C=O)CC(=O)O
Reply: > 200

====

assay: Selectivity ratio of human ICE to caspase 4
// values below are reported Selectivity ratio

Example entries begin here.
{"compound": "CCCO[C@@H]1OC(=O)C[C@@H]1NC(=O)[C@@H](CC(=O)NCCc1cccc2ncccc12)C(C)C", "Selectivity ratio": "> 200"}
{"compound": "CCO[C@H]1OC(=O)C[C@@H]1NC(=O)[C@@H](CC(=O)NCCc1cccc2ncccc12)C(C)C", "Selectivity ratio": "> 200"}
{"compound": "CCC(C)O[C@@H]1OC(=O)C[C@@H]1NC(=O)[C@@H](CC(=O)NCCc1cccc2ncccc12)C(C)C (some centres undefined)", "Selectivity ratio": "> 200"}

Let us move to another entry and its Selectivity ratio.
Ask: Quick one: Selectivity ratio of Cc1ccc2c(c1)ncn2CCNC(=O)C[C@H](C(=O)N[C@H](C=O)CC(=O)O)C(C)C ?
Reply: > 200

====

// values below are reported log10 Ki
Protein target, amino acids: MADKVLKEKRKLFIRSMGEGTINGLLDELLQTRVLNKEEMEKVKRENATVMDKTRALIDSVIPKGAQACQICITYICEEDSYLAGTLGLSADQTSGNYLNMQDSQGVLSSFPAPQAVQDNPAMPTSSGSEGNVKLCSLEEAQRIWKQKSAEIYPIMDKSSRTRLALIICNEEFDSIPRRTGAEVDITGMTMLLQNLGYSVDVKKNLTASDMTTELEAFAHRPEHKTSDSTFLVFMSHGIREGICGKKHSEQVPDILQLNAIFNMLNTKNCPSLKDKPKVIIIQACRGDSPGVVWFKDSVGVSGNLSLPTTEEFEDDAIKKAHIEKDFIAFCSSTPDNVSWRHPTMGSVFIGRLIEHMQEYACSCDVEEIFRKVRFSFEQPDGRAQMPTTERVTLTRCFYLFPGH
Base-10 log of Ki, unit nM.

Example entries begin here.
{"molecularString": "Cc1[nH]c2ccccc2c1CCNC(=O)C[C@H](C(=O)N[C@H](C=O)CC(=O)O)C(C)C", "log10 Ki": 0.11}
{"molecularString": "CC(C)[C@H](CC(=O)NCCn1ccc2ccccc21)C(=O)N[C@H](C=O)CC(=O)O", "log10 Ki": 0.61}
{"molecularString": "CC(C)[C@H](CC(=O)NCCc1c[nH]c2ccccc12)C(=O)N[C@H](C=O)CC(=O)O", "log10 Ki": 0.70}

Let us move to another entry and its log10 Ki.
Ask: Quick one: log10 Ki of CC(C)[C@H](CC(=O)N(CCOc1ccccc1)C(C)C)C(=O)N[C@H](C=O)CC(=O)O ?
Reply: 2.00

====

System: PBMC
assay: Inhibition of LPS-induced IL1-beta production in human PBMC by ELISA
Type: functional, cell-based
observedProperty: pIC50
Just so you know, pIC50 here is -log10 of the concentration in molar units; reply with that number alone.

Example entries begin here.
{"molecularString": "CC(=O)N[C@@H](Cc1ccc(O)cc1)C(=O)N[C@H](C(=O)N[C@@H](C)C(=O)N[C@H](C=O)CC(=O)O)C(C)C", "testTarget": "PBMC", "observedProperty": "pIC50", "reportedValue": 5.92}
{"molecularString": "CC(C)[C@H](CC(=O)NCCc1cccc2ncccc12)C(=O)N[C@H](C=O)CC(=O)O", "testTarget": "PBMC", "observedProperty": "pIC50", "reportedValue": 6.19}
{"molecularString": "Cc1[nH]c2ccccc2c1CCNC(=O)C[C@H](C(=O)N[C@H](C=O)CC(=O)O)C(C)C", "testTarget": "PBMC", "observedProperty": "pIC50", "reportedValue": 5.82}

Ask: Quick one: pIC50 of O=C[C@H](CC(=O)O)NC(=O)[C@@H]1CCCN2C(=O)CC[C@H](NC(=O)c3nccc4ccccc34)C(=O)N12 ?
Reply: 6.42

Ask: Let us now turn to Cc1nc2ccccc2n1CCNC(=O)C[C@H](C(=O)N[C@H](C=O)CC(=O)O)C(C)C
Reply: 5.54

====

assay: Oral bioavailability in Wistar rat at 25 mg/kg
Type: ADME, organism-based
details: in vivo
observedProperty: bioavailability (%)
Hi! Could you send only the number? It should be in %, unit omitted.

{"molecularString": "CCO[C@@H]1OC(=O)C[C@@H]1NC(=O)[C@@H](CC(=O)NCCc1cccc2ncccc12)C(C)C", "reportedValue": 25}

Ask: Quick one: bioavailability of CCCO[C@H]1OC(=O)C[C@@H]1NC(=O)[C@@H](CC(=O)NCCc1cccc2ncccc12)C(C)C ?
Reply: 35

Ask: Let us now turn to CC(C)[C@H](CC(=O)NCCc1cccc2ncccc12)C(=O)N[C@H]1CC(=O)O[C@@H]1OC1CCCC1
Reply: 5

Ask: Let us now turn to CCCO[C@@H]1OC(=O)C[C@@H]1NC(=O)[C@@H](CC(=O)NCCc1cccc2ncccc12)C(C)C
Reply: 9

====

testTarget: UniProtKB P29466
Sequence (P29466 whole entry): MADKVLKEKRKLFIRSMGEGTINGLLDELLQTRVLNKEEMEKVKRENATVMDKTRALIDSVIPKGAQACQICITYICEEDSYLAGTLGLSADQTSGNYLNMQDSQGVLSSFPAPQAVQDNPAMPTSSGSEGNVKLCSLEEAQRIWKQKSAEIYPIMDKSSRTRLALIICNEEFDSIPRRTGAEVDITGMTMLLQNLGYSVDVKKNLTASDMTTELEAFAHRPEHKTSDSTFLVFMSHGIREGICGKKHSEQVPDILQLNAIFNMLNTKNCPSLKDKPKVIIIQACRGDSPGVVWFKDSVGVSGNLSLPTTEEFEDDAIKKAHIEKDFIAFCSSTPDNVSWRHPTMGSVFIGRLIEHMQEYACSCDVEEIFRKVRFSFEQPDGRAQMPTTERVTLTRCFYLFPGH
// values below are reported log10 of Ki
Base-10 log of Ki, unit nM.

Example entries begin here.
{"molecularString": "CC(C)[C@H](CC(=O)NCCOc1ccccc1)C(=O)N[C@H](C=O)CC(=O)O", "log10 of Ki": 1.23}
{"molecularString": "CC(=O)N[C@@H](Cc1ccc(O)cc1)C(=O)N[C@H](C(=O)N[C@@H](C)C(=O)N[C@H](C=O)CC(=O)O)C(C)C", "log10 of Ki": -0.15}
{"molecularString": "CC(C)[C@H](CC(=O)NCCNc1cccc(Cl)c1)C(=O)N[C@H](C=O)CC(=O)O", "log10 of Ki": -0.02}
{"molecularString": "CC(C)[C@H](CC(=O)NCCc1c[nH]c2ccc(F)cc12)C(=O)N[C@H](C=O)CC(=O)O", "log10 of Ki": 0.90}

Let us move to another entry and its log10 of Ki.
Ask: Quick one: log10 of Ki of CC(C)[C@H](CC(=O)N(CCOc1ccccc1)CCC(=O)O)C(=O)N[C@H](C=O)CC(=O)O ?
Reply: 0.97
